# Tested on: wheat
# TEST_PROTOCOL: Test A postemergence
# Format: in vivo, Triticum aestivum
# RECORDED_CONDITIONS: 1000 g ai/ha, Postemergence; 0 to 100 scale
I'd be grateful if you could share measured Plant response rating, Wheat for these entries.
Answers are plain numbers.

Here is how some molecules turned out for Plant response rating, Wheat.
| MOLECULE | READOUT | VALUE |
| --- | --- | --- |
| C=Cc1cccc2c1OC(C)CN2C(=O)c1cccc(-n2cncn2)c1 (centres unmarked) [Compound 26] | Plant response rating, Wheat | 0 |
| CC1CN(C(=O)c2cccc(-n3cncn3)c2)c2cc(F)ccc2O1 (centres unmarked) [Compound 24] | Plant response rating, Wheat | 30 |
| C#Cc1cccc2c1OC(C)CN2C(=O)c1cccc(-n2cncn2)c1 (centres unmarked) [Compound 30] | Plant response rating, Wheat | 40 |
| C[C@H]1CN(C(=O)c2cccc(-c3ccncc3)c2)c2cccc(Cl)c2O1 [Compound 123] | Plant response rating, Wheat | 0 |

Now turn to the next molecule.
# input # get_value(readout='Plant response rating, Wheat', item= C[C@H]1CN(C(=O)c2cccc(-n3cccn3)c2)c2cccc(Cl)c2O1 [Compound 129] )
# output 0
